system.tested: biotinylated His-Avi-TEAD (194-411) (UniProt P28347)
method.summary: SSM screen, enrichment after two rounds of sorting
Given measured enrichment score, output yes (1) if it is greater than or equal to -1 and no (0) if not.

Exam item: decide whether the reported enrichment score for GSPDEYIEQAKECCKKGDIQCCLRYFEESGDPNVMLICLFCP (designed binder) [R07Q variant of SEQ ID NO: 1] is at least -1.
yes (1)

What about this binder? GSPDEYIETAKECCKKGDIQCCLRYFEESGDPNVMLICLFCP (designed binder) [R07T variant of SEQ ID NO: 1]
no (0)

What about this binder? GSPDEYNERAKECCKKGDIQCCLRYFEESGDPNVMLICLFCP (designed binder) [I05N variant of SEQ ID NO: 1]
no (0)

What about this binder? GSPAEYIERAKECCKKGDIQCCLRYFEESGDPNVMLICLFCP (designed binder) [D02A variant of SEQ ID NO: 1]
no (0)

What about this binder? GSPDEYIERAKECCKKGAIQCCLRYFEESGDPNVMLICLFCP (designed binder) [D16A variant of SEQ ID NO: 1]
no (0)

What about this binder? GSPDEYIERAKECCKKGKIQCCLRYFEESGDPNVMLICLFCP (designed binder) [D16K variant of SEQ ID NO: 1]
no (0)
